In this section we review reported half-life values for a set of molecules.
Assay: Pharmacokinetic evaluation after single oral administration to ICR mice
Assay type: in vivo
Conditions: mouse; ICR mice, single oral dose 5 mg/kg, plasma
OBSERVABLE: half-life

1) COc1cc(N2CCN(CC3CCN(CC(=O)Nc4cccc5c4CN(C4CCC(=O)NC4=O)C5=O)CC3)CC2)ccc1Nc1ncc(Cl)c(Nc2ccccc2N(C)S(C)(=O)=O)n1 (stereo not shown) [Compound 26] ... 9.29 h
2) COc1cc(N2CCC(CN3CCN(C(=O)[C@H](C)Nc4cccc5c4C(=O)N(C4CCC(=O)NC4=O)C5=O)CC3)CC2)c(C)cc1Nc1ncc(Cl)c(Nc2ccccc2N(C)S(C)(=O)=O)n1 (stereo partly shown) [Compound 78] ... 3.75 h
3) COc1cc(N2CCC(N3CCN(CCC4CCN(c5ccc6c(c5)C(=O)N(C5CCC(=O)NC5=O)C6=O)CC4)CC3)CC2)c(C)cc1Nc1ncc(Cl)c(Nc2ccccc2N(C)S(C)(=O)=O)n1 (stereo not shown) [Compound 77] ... 2.96 h
4) COc1cc(N2CCC(N3CCN(CC4CCN(c5ccc6c(c5)C(=O)N(C5CCC(=O)NC5=O)C6=O)CC4)CC3)CC2)ccc1Nc1ncc(Cl)c(Nc2ccccc2N(C)S(C)(=O)=O)n1 (stereo not shown) [Compound 71] ... 7.77 h
5) COc1cc(N2CCN(CC3CCN(C(=O)[C@H](C)Oc4cccc5c4C(=O)N(C4CCC(=O)NC4=O)C5=O)CC3)CC2)c(C)cc1Nc1ncc(Cl)c(Nc2ccccc2N(C)S(C)(=O)=O)n1 (stereo partly shown) [Compound 82] ... 6.03 h
6) COc1cc(N2CCN(CC3CCN(C(=O)[C@H](C)Nc4cccc5c4C(=O)N(C4CCC(=O)NC4=O)C5=O)CC3)CC2)c(C)cc1Nc1ncc(Cl)c(Nc2ccccc2N(C)S(C)(=O)=O)n1 (stereo partly shown) [Compound 75] ... 2.82 h
7) COc1cc(N2CCC(N3CCN(CCNc4cccc5c4C(=O)N(C4CCC(=O)NC4=O)C5=O)CC3)CC2)c(C)cc1Nc1ncc(Cl)c(Nc2ccccc2N(C)S(C)(=O)=O)n1 (stereo not shown) [Compound 74] ... 4.44 h
8) COc1cc(N2CCC(N3CCN(CC(=O)Nc4ccc5c(c4)CN(C4CCC(=O)NC4=O)C5=O)CC3)CC2)ccc1Nc1ncc(Cl)c(Nc2ccccc2N(C)S(C)(=O)=O)n1 (stereo not shown) [Compound 47] ... 4.13 h
9) COc1cc(N2CCN(CC3CCN(C(=O)CNc4cccc5c4C(=O)N(C4CCC(=O)NC4=O)C5=O)CC3)CC2)ccc1Nc1ncc(Cl)c(Nc2ccccc2N(C)S(C)(=O)=O)n1 (stereo not shown) [Compound 65] ... 4.01 h
10) COc1cc(N2CCC(CN3CCN(c4ccc5c(c4)C(=O)N(C4CCC(=O)NC4=O)C5=O)CC3)CC2)c(C)cc1Nc1ncc(Cl)c(Nc2ccccc2N(C)S(C)(=O)=O)n1 (stereo not shown) [Compound 79] ... 3.47 h

---

In this section we review reported AUC(0-t) values for a set of compounds.
Assay: Pharmacokinetic evaluation after single oral administration to ICR mice
Format: in vivo
Conditions: mouse; ICR mice, single oral dose 5 mg/kg, plasma; read-out: AUC0-24
OBSERVABLE: AUC(0-t) (ng·h/mL)

1. COc1cc(N2CCC(N3CCN(CC4CCN(c5ccc6c(c5)C(=O)N(C5CCC(=O)NC5=O)C6=O)CC4)CC3)CC2)ccc1Nc1ncc(Cl)c(Nc2ccccc2N(C)S(C)(=O)=O)n1 (stereo not drawn) [Compound 71] ... 1230
2. COc1cc(N2CCC(N3CCN(CCC4CCN(c5ccc6c(c5)C(=O)N(C5CCC(=O)NC5=O)C6=O)CC4)CC3)CC2)c(C)cc1Nc1ncc(Cl)c(Nc2ccccc2N(C)S(C)(=O)=O)n1 (stereo not drawn) [Compound 77] ... 1170
3. COc1cc(N2CCC(N3CCN(CCC(=O)N[C@H](C(=O)N4C[C@H](O)C[C@@H]4C(=O)NCc4ccc(-c5scnc5C)cc4)C(C)(C)C)CC3)CC2)ccc1Nc1ncc(Cl)c(Nc2ccccc2N(C)S(C)(=O)=O)n1 [Compound 20] ... 42

---

Experiment: Pharmacokinetic evaluation after single oral administration to ICR mice
Assay type: in vivo
Details: mouse; ICR mice, single oral dose 5 mg/kg, plasma; read-out: AUC0-24
OBSERVABLE: AUC(0-t) (ng·h/mL)

1. COc1cc(N2CCC(N3CCN(CC4CCN(c5ccc6c(c5)C(=O)N(C5CCC(=O)NC5=O)C6=O)CC4)CC3)CC2)c(C)cc1Nc1ncc(Cl)c(Nc2ccccc2N(C)S(C)(=O)=O)n1 (centres unmarked) ... 5240
2. COc1cc(N2CCN(CC3CCN(CC(=O)N[C@H](C(=O)N4C[C@H](O)CC4C(=O)NCc4ccc(-c5scnc5C)cc4)C(C)(C)C)CC3)CC2)ccc1Nc1ncc(Cl)c(Nc2ccccc2N(C)S(C)(=O)=O)n1 (stereo in doubt) ... 1170

---

In this section we review reported AUC(0-t) values for a set of molecules.
Assay: Pharmacokinetic evaluation after single oral administration to ICR mice
Type: in vivo
Settings: mouse; ICR mice, single oral dose 5 mg/kg, plasma; read-out: AUC0-24
OBSERVABLE: AUC(0-t) (ng·h/mL)

1. COc1cc(N2CCC(N3CCN(CC(=O)Nc4cccc5c4CN(C4CCC(=O)NC4=O)C5=O)CC3)CC2)ccc1Nc1ncc(Cl)c(Nc2ccccc2N(C)S(C)(=O)=O)n1 (stereo not shown) ... 47
2. COc1cc(N2CCC(N3CCN(CCNc4cccc5c4C(=O)N(C4CCC(=O)NC4=O)C5=O)CC3)CC2)c(C)cc1Nc1ncc(Cl)c(Nc2ccccc2N(C)S(C)(=O)=O)n1 (stereo not shown) ... 5520
3. COc1cc(N2CCN(CC3CCN(C(=O)COc4cccc5c4C(=O)N(C4CCC(=O)NC4=O)C5=O)CC3)CC2)ccc1Nc1ncc(Cl)c(Nc2ccccc2N(C)S(C)(=O)=O)n1 (stereo not shown) ... 44
4. COc1cc(N2CCC(N3CCN(CCC4CCN(c5ccc6c(c5)C(=O)N(C5CCC(=O)NC5=O)C6=O)CC4)CC3)CC2)ccc1Nc1ncc(Cl)c(Nc2ccccc2N(C)S(C)(=O)=O)n1 (stereo not shown) ... 635
5. COc1cc(N2CCN(CC3CCN(C(=O)[C@@H](C)Oc4cccc5c4C(=O)N(C4CCC(=O)NC4=O)C5=O)CC3)CC2)ccc1Nc1ncc(Cl)c(Nc2ccccc2N(C)S(C)(=O)=O)n1 (stereo partly shown) ... 280
6. COc1cc(N2CCC(CN3CCN(C(=O)[C@H](C)Nc4cccc5c4C(=O)N(C4CCC(=O)NC4=O)C5=O)CC3)CC2)c(C)cc1Nc1ncc(Cl)c(Nc2ccccc2N(C)S(C)(=O)=O)n1 (stereo partly shown) ... 5740
7. COc1cc(N2CCN(CC3CCN(C(=O)COc4cccc5c4C(=O)N(C4CCC(=O)NC4=O)C5=O)CC3)CC2)c(C)cc1Nc1ncc(Cl)c(Nc2ccccc2N(C)S(C)(=O)=O)n1 (stereo not shown) ... 502
8. COc1cc(N2CCN(CC3CCN(C(=O)CNc4cccc5c4C(=O)N(C4CCC(=O)NC4=O)C5=O)CC3)CC2)ccc1Nc1ncc(Cl)c(Nc2ccccc2N(C)S(C)(=O)=O)n1 (stereo not shown) ... 607
9. COc1cc(N2CCN(CC3CCN(C(=O)CCc4cccc5c4C(=O)N(C4CCC(=O)NC4=O)C5=O)CC3)CC2)ccc1Nc1ncc(Cl)c(Nc2ccccc2N(C)S(C)(=O)=O)n1 (stereo not shown) ... 840
10. COc1cc(N2CCC(CN3CCN(CC(=O)N[C@H](C(=O)N4C[C@H](O)CC4C(=O)NCc4ccc(-c5scnc5C)cc4)C(C)(C)C)CC3)CC2)ccc1Nc1ncc(Cl)c(Nc2ccccc2N(C)S(C)(=O)=O)n1 (stereo in doubt) ... 68
